Hello, the source for this data is patent US10253052B2, in case you need it.

Assay info: In vivo biodistribution in mice
Design: species or system normal CD-1 male mice
Settings: iv, 2 min post injection
Please provide measured Biodistribution: Pancreas for the entries that follow.
Put your answer as a value accompanied by its unit after it.

Study these solved cases before continuing.
O=C(O)CN1CCN(CC(=O)O)CCN(CC(=O)NC(P(=O)(O)O)P(=O)(O)O)CCN(CC(=O)O)CC1.[68Ga] [[^68Ga]BPAMD, reference compound]: 1.73 ± 0.11 % dose/g
O=C([O-])CN(CCN(CC(=O)[O-])Cc1cc(CCC(=O)O)ccc1[O-])Cc1cc(CCC(=O)O)ccc1[O-].[68Ga+3] [[^68Ga]HBED-CC, reference compound]: 1.60 ± 0.12 % dose/g
O=C([O-])CN(CCN(CC(=O)[O-])Cc1cc(CCC(=O)NC(P(=O)(O)O)P(=O)(O)O)ccc1[O-])Cc1cc(CCC(=O)NC2C(O)OC(CO)C(O)C2O)ccc1[O-].[68Ga+3] (stereo not drawn) [[^68Ga]1b]: 1.51 ± 0.06 % dose/g

Each molecule below has a recorded value; state its Biodistribution: Pancreas.
1. O=C([O-])CN(CCN(CC(=O)[O-])Cc1cc(CCC(=O)NC(P(=O)(O)O)P(=O)(O)O)ccc1[O-])Cc1cc(CCC(=O)NCCCCCC(=O)NCCCC[C@H](NC(=O)N[C@@H](CCC(=O)O)C(=O)O)C(=O)O)ccc1[O-].[68Ga+3] [[^68Ga]1g]
2. C[C@H](NC(=O)CCc1ccc([O-])c(CN(CCN(CC(=O)[O-])Cc2cc(CCC(=O)NC(P(=O)(O)O)P(=O)(O)O)ccc2[O-])CC(=O)[O-])c1)C(=O)O.[68Ga+3] [[^68Ga]1d]
3. O=C([O-])CN(CCN(CC(=O)[O-])Cc1cc(CCC(=O)NC(P(=O)(O)O)P(=O)(O)O)ccc1[O-])Cc1cc(CCC(=O)NCCNC(=O)CN2CCN(CC(=O)O)CCN(CC(=O)O)CCN(CC(=O)O)CC2)ccc1[O-].[68Ga+3] [[^68Ga]1h]
4. O=C([O-])CN(CCN(CC(=O)[O-])Cc1cc(CCC(=O)NC(P(=O)(O)O)P(=O)(O)O)ccc1[O-])Cc1cc(CCC(=O)NCCCNC(=O)CCc2ccc(O)c(CN(CCN(CC(=O)O)Cc3cc(CCC(=O)NC(P(=O)(O)O)P(=O)(O)O)ccc3O)CC(=O)O)c2)ccc1[O-].[68Ga+3] [[^68Ga]3]
5. O=C([O-])CN(CCN(CC(=O)[O-])Cc1cc(CCC(=O)NC(P(=O)(O)O)P(=O)(O)O)ccc1[O-])Cc1cc(CCC(=O)NC(P(=O)(O)O)P(=O)(O)O)ccc1[O-].[68Ga+3] [[^68Ga]2]
6. O=C([O-])CN(CCN(CC(=O)[O-])Cc1cc(CCC(=O)N[C@@H](CC(=O)O)C(=O)O)ccc1[O-])Cc1cc(CCC(=O)NC(P(=O)(O)O)P(=O)(O)O)ccc1[O-].[68Ga+3] [[^68Ga]1e]

## Result
["1.69 ± 0.13 % dose/g", "1.53 ± 0.14 % dose/g", "1.48 ± 0.27 % dose/g", "1.73 ± 0.08 % dose/g", "2.05 ± 0.23 % dose/g", "1.27 ± 0.07 % dose/g"]
